Values from patent US20240383856A1

target: recombinant human transglutaminase 2 (Homo sapiens); construct: purchased Zedira T022; experiment: Transglutaminase assay (DCC-assay): incorporation of dansylcadaverine into dimethylcasein; assay type: biochemical; conditions: recombinant human TG2 10 nM; dansylcadaverine incorporation into dimethylcasein; read-out: IC50 TG2
pIC50: −log10 of the molar value.
QUANTITY MEASURED: pIC50

CNC(=O)C(=O)CC[C@H](NC(=O)c1ccc2occc2c1)C(=O)Nc1cccn(CC(=O)NC2C3CC4CC2CC(NC(C)=O)(C4)C3)c1=O (stereo partly shown): 6.40 to 7.40
CNC(=O)C(=O)CC[C@H](NC(=O)c1cnccn1)C(=O)Nc1cccn(CC(=O)NC2C3CC4CC(C3)CC2C4)c1=O (stereo partly shown): 6.40 to 7.40
CNC(=O)C(=O)CC[C@H](NC(=O)c1noc(C)n1)C(=O)Nc1cccn(CC(=O)NC23CC(C2)C3)c1=O: 5.60 to 6.40
CNC(=O)C(=O)CC[C@H](NC(=O)c1csnn1)C(=O)Nc1cccn(CC(=O)NC23CC(C2)C3)c1=O: 6.40 to 7.40
CNC(=O)C(=O)CC[C@H](NC(=O)c1cncn1C)C(=O)Nc1cccn(CC(=O)NC23CC4(C)CC(C)(CC(C)(C4)C2)C3)c1=O: 6.40 to 7.40

query: Item under review: CNC(=O)C(=O)CC[C@H](NC(=O)c1cc2ccccc2s1)C(=O)Nc1cccn(CC(=O)NC2C3CC4CC(C3)CC2C4)c1=O (stereo partly shown) . Reported pIC50?
result: > 7.40

query: Item under review: CNC(=O)C(=O)CC[C@H](NC(=O)c1sc(OC)nc1C)C(=O)Nc1cccn(CC(=O)NC2C3CC4CC(C3)CC2C4)c1=O (stereo partly shown) . Reported pIC50?
result: 6.40 to 7.40

* * *

The following compounds are listed with their measured logD values.
assay: logD by shake flask method (octanol / PBS pH 7.4, HPLC); format: physicochemical; conditions: octanol / PBS pH 7.4, shake flask

Take a look at these entries with their results.
CNC(=O)C(=O)CC[C@H](NC(=O)c1oc2ccccc2c1C)C(=O)Nc1cccn(CC(=O)NC2(C#N)C3CC4CC(C3)CC2C4)c1=O (stereo partly shown): 1 to 3
CNC(=O)C(=O)CC[C@H](NC(=O)c1ccnnc1)C(=O)Nc1cccn(CC(=O)NC2C3CC4CC(C3)CC2C4)c1=O (stereo partly shown): < 1
CNC(=O)C(=O)CC[C@H](NC(=O)c1oc2ccccc2c1C)C(=O)Nc1cccn(CC(=O)NC23CCCC4CC(CCC42)C3)c1=O (stereo partly shown): 1 to 3
CNC(=O)C(=O)CC[C@H](NC(=O)c1cc2c(Br)cccc2o1)C(=O)Nc1cccn(CC(=O)NC2C3CC4CC(C3)CC2C4)c1=O (stereo partly shown): 3 to 5
CNC(=O)C(=O)CC[C@H](NC(=O)c1sc(Cl)nc1Cl)C(=O)Nc1cccn(CC(=O)NC2C3CC4CC(C3)CC2C4)c1=O (stereo partly shown): 1 to 3

query: Item under review: Cc1c(C(=O)N[C@@H](CCC(=O)C(N)=O)C(=O)Nc2cccn(CC(=O)NC3C4CC5CC(C4)CC3C5)c2=O)oc2ccccc12 (stereo partly shown) . Reported logD?
result: 1 to 3

query: Item under review: CNC(=O)C(=O)CC[C@H](NC(=O)C1CN2CCC1CC2)C(=O)Nc1cccn(CC(=O)NC2C3CC4CC(C3)CC2C4)c1=O (stereo partly shown) . Reported logD?
result: 1 to 3

query: Item under review: CNC(=O)C(=O)CC[C@H](NC(=O)c1snnc1C)C(=O)Nc1cccn(CC(=O)NC2C3CC4CC(C3)CC2C4)c1=O (stereo partly shown) . Reported logD?
result: < 1

query: Item under review: Cc1nnsc1C(=O)N[C@@H](CCC(=O)C(N)=O)C(=O)Nc1cccn(CC(=O)NC2C3CC4CC(C3)CC2C4)c1=O (stereo partly shown) . Reported logD?
result: < 1

query: Item under review: CC(C)(C)NC(=O)C(=O)CC[C@H](NC(=O)c1c[nH]c2ccccc12)C(=O)Nc1cccn(CC(=O)NC2C3CC4CC(C3)CC2C4)c1=O (stereo partly shown) . Reported logD?
result: 3 to 5

query: Item under review: CNC(=O)C(=O)CC[C@H](NC(=O)c1cncc(C(=O)OC)c1)C(=O)Nc1cccn(CC(=O)NC2C3CC4CC(C3)CC2C4)c1=O (stereo partly shown) . Reported logD?
result: 1 to 3

query: Item under review: NC(=O)C(=O)CC[C@H](NC(=O)c1cc2ccccc2o1)C(=O)Nc1cccn(CC(=O)N[C@@H]2C[C@H]3CC[C@@H]2C3)c1=O . Reported logD?
result: < 1

query: Item under review: NC(=O)C(=O)CC[C@H](NC(=O)c1cc2ccccc2o1)C(=O)Nc1cccn(CC(=O)N[C@@H]2C[C@@H]3CC[C@H]2C3)c1=O . Reported logD?
result: < 1

query: Item under review: Cc1c(C(=O)N[C@@H](CCC(=O)C(N)=O)C(=O)Nc2cccn(CC(=O)N[C@@H]3C[C@H]4CC[C@@H]3C4)c2=O)oc2ccccc12 . Reported logD?
result: < 1

* * *

biological target: recombinant human transglutaminase 2 (Homo sapiens, UniProt P21980); construct: purchased Zedira T022; assay: Transglutaminase assay (DCC-assay): incorporation of dansylcadaverine into dimethylcasein; assay type: biochemical; details: recombinant human TG2 10 nM; dansylcadaverine incorporation into dimethylcasein; read-out: IC50 TG2
Sequence (P21980 whole entry): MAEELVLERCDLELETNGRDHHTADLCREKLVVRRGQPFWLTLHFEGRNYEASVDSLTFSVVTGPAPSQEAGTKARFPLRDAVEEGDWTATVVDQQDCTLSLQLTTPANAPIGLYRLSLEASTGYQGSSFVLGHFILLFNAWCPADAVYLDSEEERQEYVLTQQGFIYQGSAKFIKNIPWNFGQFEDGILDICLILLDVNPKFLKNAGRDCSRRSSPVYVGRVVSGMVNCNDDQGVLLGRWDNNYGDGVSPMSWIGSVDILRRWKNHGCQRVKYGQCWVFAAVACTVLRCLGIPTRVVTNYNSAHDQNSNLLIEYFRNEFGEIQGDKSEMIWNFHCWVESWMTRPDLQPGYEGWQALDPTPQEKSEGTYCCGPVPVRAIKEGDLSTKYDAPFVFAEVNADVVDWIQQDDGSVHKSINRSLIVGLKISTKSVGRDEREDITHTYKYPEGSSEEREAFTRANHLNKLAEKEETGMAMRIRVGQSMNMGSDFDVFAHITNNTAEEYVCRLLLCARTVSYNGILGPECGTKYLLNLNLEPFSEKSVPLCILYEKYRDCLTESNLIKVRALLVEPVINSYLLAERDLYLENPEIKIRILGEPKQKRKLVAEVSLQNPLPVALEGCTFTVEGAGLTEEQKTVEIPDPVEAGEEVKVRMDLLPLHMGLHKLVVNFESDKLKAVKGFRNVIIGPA
pIC50: −log10 of the molar value.
QUANTITY MEASURED: pIC50

Take a look at these entries with their results.
CNC(=O)C(=O)CC[C@H](NC(=O)c1nc(C)c(C)s1)C(=O)Nc1cccn(CC(=O)NC2C3CC4CC(C3)CC2C4)c1=O (some centres unmarked): 5.60 to 6.40
CNC(=O)C(=O)CC[C@H](NC(=O)c1nc2ccccc2[nH]1)C(=O)Nc1cccn(CC(=O)NC2C3CC4CC(C3)CC2C4)c1=O (some centres unmarked): 6.40 to 7.40
CNC(=O)C(=O)CC[C@H](NC(=O)c1cncc(C(=O)OC)c1)C(=O)Nc1cccn(CC(=O)NC2C3CC4CC(C3)CC2C4)c1=O (some centres unmarked): 6.40 to 7.40
CC(C)NC(=O)C(=O)CC[C@H](NC(=O)c1cc2ccccc2o1)C(=O)Nc1cccn(CC(=O)NC2C3CC4CC(C3)CC2C4)c1=O (some centres unmarked): 6.40 to 7.40
CNC(=O)C(=O)CC[C@H](NC(=O)[C@@H]1CCCCN1)C(=O)Nc1cccn(CC(=O)NC2C3CC4CC(C3)CC2C4)c1=O (some centres unmarked): 6.40 to 7.40

query: What value of pIC50 on recombinant human transglutaminase 2 (Homo sapiens, UniProt P21980) does CNC(=O)C(=O)CC[C@H](NC(=O)c1snnc1C)C(=O)Nc1cccn(CC(=O)NC2C3CC4CC(C3)CC2C4)c1=O (some centres unmarked) have?
result: 6.40 to 7.40

query: What value of pIC50 on recombinant human transglutaminase 2 (Homo sapiens, UniProt P21980) does CNC(=O)C(=O)CC[C@H](NC(=O)c1cc2ccccc2[nH]1)C(=O)Nc1cccn(CC(=O)NC2C3CC4CC(C3)CC2C4)c1=O (some centres unmarked) have?
result: > 7.40

query: What value of pIC50 on recombinant human transglutaminase 2 (Homo sapiens, UniProt P21980) does CNC(=O)C(=O)CC[C@H](NC(=O)[C@@H]1C[C@H](Br)CN1)C(=O)Nc1cccn(CC(=O)NC2C3CC4CC(C3)CC2C4)c1=O (some centres unmarked) have?
result: 6.40 to 7.40

query: What value of pIC50 on recombinant human transglutaminase 2 (Homo sapiens, UniProt P21980) does CNC(=O)C(=O)CC[C@H](NC(=O)c1cnnn1C)C(=O)Nc1cccn(CC(=O)N[C@H]2C[C@H]3CC[C@]2(C)C3(C)C)c1=O have?
result: 6.40 to 7.40

query: What value of pIC50 on recombinant human transglutaminase 2 (Homo sapiens, UniProt P21980) does CNC(=O)C(=O)CC[C@H](NC(=O)c1sc(Br)c(Br)c1OC)C(=O)Nc1cccn(CC(=O)NC2C3CC4CC(C3)CC2C4)c1=O (some centres unmarked) have?
result: 6.40 to 7.40

* * *

Experiment: logD by shake flask method (octanol / PBS pH 7.4, HPLC)
Type: physicochemical
Settings: octanol / PBS pH 7.4, shake flask
Protocol: In order to classify the inventive compounds according to their lipophilicity, LogD values (distribution coefficient) were determined by means of the well-established shake flask method, measuring the partition of a compound between an octanol and phosphate-buffered saline (PBS, pH 7.4) by HPLC. The LogD is pH dependent and is a “predictor” for in-vivo properties. LogD combines lipophilicity (intrinsic structural property of the molecule, logP) and ionizability (pKa). […]
The following compounds are listed with their measured logD values.

Take a look at these entries with their results.
CNC(=O)C(=O)CC[C@H](NC(=O)c1cc(C(=O)OC)cc([N+](=O)[O-])c1)C(=O)Nc1cccn(CC(=O)NC2C3CC4CC(C3)CC2C4)c1=O (stereo partly drawn): 1 to 3
CNC(=O)C(=O)CC[C@H](NC(=O)c1cc(C#N)cn1C)C(=O)Nc1cccn(CCCC23CC4CC(CC(C4)C2)C3)c1=O: 3 to 5

Kindly consider the entry below.
query: Item under review: CNC(=O)C(=O)CC[C@H](NC(=O)c1nccn1C)C(=O)Nc1cccn(CC(=O)NC[C@@H]2CC[C@H]3C[C@@H]2C3(C)C)c1=O . Reported logD?
result: 1 to 3
